These entries and their values trace back to the supplement of paper PMC6555819.

- Tested on: PPARg homodimer (NR concentration 180 nM)
- Protocol notes: PBM binding z-score (relative to random genomic background probes); higher = stronger binding; sequences stand for … in GC…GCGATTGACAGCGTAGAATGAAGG
Value type: PBM binding z-score
Give bare numbers.

Batch request: PBM binding z-score per item, same order as input.
1. TCTTGTAGATCAATAGAGGTTAAGACAGTGCGCT
2. CATACAGGGTCAGCTGGGCCAGAGTAGGGACGGC
3. TTTATTAGTTGATTAGGGCAACCGAAACAGCGGA
4. TCTTGTAGATCAGCAGGTTAAGCAAGCTGGCCAA
5. ATATGTAGGCTAAGGGTCATTCAGGTTGGTTCGC

[out]
1: 0.896; 2: 1.52; 3: 1.68; 4: -0.763; 5: 2.35

Batch request: PBM binding z-score per item, same order as input.
1. TTACCAAGGTGAGCTGAGGTCGTTGTTCCAACTC
2. CCTACTGGGCCTTTCAGAGGTCATTGATCATATG
3. TCTTGCAGATCAACAGGAGGTTAAGAAAGATCGA
4. CAAACTATGTCACCGGAAGGTCAAAGTCCGCATG
5. CGAACTAGGCCATCCAGGACAGTGAATACATTGA

[out]
1: -0.161; 2: 2.46; 3: -0.378; 4: 3.93; 5: 0.048

Batch request: PBM binding z-score per item, same order as input.
1. TCTCGAAGGACACGAAGGTCAGAGCTTTCCAGAG
2. CCTCGTTGGTCAGGAGGTCACACACCGGATATGA
3. CGAACTAGGTCAAAACAGGACAGTGAAGGATGAT
4. TGAATGAGGTTACAAGATCAGGGAACGTTGCAAA
5. TCTGCTAGGTCAACGATGGTCAGCTCATCTGCTA

[out]
1.64
3.05
2.39
0.112
1.9

Batch request: PBM binding z-score per item, same order as input.
1. AGAATGAGGTTATTAAGACCAGGGAATTGCGGTC
2. ATCGAGAGGTCGACGAGGTGAGTATACACCGTTT
3. TCTATTGGTTGATTAGGGCAACCGAAACAGCGGA
4. ATATGTAGGTTAAGGGTCATACAGGTTGGTTCGC
5. CCTGCTAGGTCAATGCTCAGCTAAAGCAGCTCGC
6. CAAACTAGGTCAAGAGGTGAAAGTCCGCTTCCCG
7. CCGCCTAGGTCAGGGCCAGTATAGGAGGAACGTT

[out]
[0.709, 0.663, 1.38, 4.5, 0.329, 5.72, 0.393]

Batch request: PBM binding z-score per item, same order as input.
1. TCTTGTAGATCAGCAGCTTAAGAAAGCTGGCCAA
2. GCTTACGGGTCAAGGGTTATAGCATGAATAGAAT
3. ATCGAAAGGTCGTGAGGTGAGAATACAGAAAGGC

[out]
-0.337
3.12
1.7

Batch request: PBM binding z-score per item, same order as input.
1. CAAACTATGTCAAAGGTCAAAGTCGAGCCAACCA
2. CCTGCTAAGTCATGGTCAGCTAATCTACAGTATG
3. TAGCCTAGGTCAGATCGGGCTAGTATACGCTATA
4. TATACAGGGTCAAAGGCCAGACTACGAATGTCGA

[out]
[3.54, 0.146, 0.037, 2.4]

[in] Return the recorded PBM binding z-score value; entry: GCTAGCAGGCCATTTGGGTCACTCCATGACGGGC
[out] -0.247

###

- Test system: VDR homodimer (NR concentration 270 nM)
- Protocol notes: PBM binding z-score (relative to random genomic background probes); higher = stronger binding; sequences stand for … in GC…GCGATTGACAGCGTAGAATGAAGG
The threshold is inclusive: PBM binding z-score of exactly 1 counts as 1; values below receive 0.

[in] Quick check, PBM binding z-score >= 1? CTCGAAAGGTCGGTTGACGTGAGTATACGGATAA
[out] 0

Continuing:
[in] Quick check, PBM binding z-score >= 1? CGACCAAGGTCAGAGAGGTCAGTGAATGCCGAGT
[out] 1

[in] Quick check, PBM binding z-score >= 1? CCCACTGGGCCATCAGGTCATTGATATCAACGTT
[out] 1

[in] Quick check, PBM binding z-score >= 1? ATTATTAGTTGACTTAGGGCAACCGATACGACGC
[out] 1

[in] Quick check, PBM binding z-score >= 1? ATCTCTAGGTAACAAGTTCATTGAAAGAGAGGAC
[out] 1

[in] Quick check, PBM binding z-score >= 1? CCTCGGAGGACAACAGGGGGTCAGAGCTGCCAGA
[out] 1

[in] Quick check, PBM binding z-score >= 1? CAAACTGGGTCACCGGAAGGTCAAAGTCCGCATG
[out] 1

[in] Quick check, PBM binding z-score >= 1? CCTGCTAGGTCATGGTCACCTAATCTACAGTATG
[out] 0

[in] Quick check, PBM binding z-score >= 1? TCGAGTAGGCTAGTCGGGGCATTCAGCCAACATA
[out] 0

[in] Quick check, PBM binding z-score >= 1? GTACCAAGGTGAATAGGTCGCTGATGAGTAGGCG
[out] 0

[in] Quick check, PBM binding z-score >= 1? ATCTCTAGGTAACGATAGTTCAGTGAATGCAAAT
[out] 0

[in] Quick check, PBM binding z-score >= 1? AGAATGAGGTTATTGAGATCAGGGAATTGCGGTC
[out] 1

[in] Quick check, PBM binding z-score >= 1? TCTATTAGTTGAAGGGCAATCGACGAGTCCGTTT
[out] 1

[in] Quick check, PBM binding z-score >= 1? CGAACTAGGTCAAGAGGTCAAAGTCCGCTTCCCG
[out] 1

###

- System: THRa homodimer (NR concentration 90 nM)
- Protocol notes: PBM binding z-score (relative to random genomic background probes); higher = stronger binding; sequences stand for … in GC…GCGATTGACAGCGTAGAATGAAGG
Value type: PBM binding z-score
Numbers only.

[in] Return the recorded PBM binding z-score value; entry: TTAATGAGGTTAAAGATCAGGGAACGTGGCGTCG
[out] 0.742

[in] Return the recorded PBM binding z-score value; entry: TCGAGTAGGTTAGGGCCATTCAGAATGGCGTCGA
[out] -0.173

[in] Return the recorded PBM binding z-score value; entry: ATATATAGGTTACATCCGGGTCATTCAGGCTATG
[out] 2.74

[in] Return the recorded PBM binding z-score value; entry: TCATATAGATAAAGGTGAAAGTCGAACGATATGA
[out] -0.268

[in] Return the recorded PBM binding z-score value; entry: GCTTGTAGATCACGGTTAAGAAAGACTAAGCTAA
[out] -1.01

Batch request: PBM binding z-score per item, same order as input.
1. GCTGCTAGGTCAAGTTGGTCAGCTAACGGGTACG
2. CAGCCTAGGTCAGGACCAGTATAGGAGGAACGTT
3. GCTGCTAGGTCAACTGACGGTCAGCTAAAGCTCG

[out]
[1.13, 0.463, 0.993]

###

- Test system: PPARg:RXRa IVT, anti-PPARg (NR concentration 270 nM, RXRa partner concentration 90 nM)
- Protocol notes: PBM binding z-score (relative to random genomic background probes); higher = stronger binding; sequences stand for … in GC…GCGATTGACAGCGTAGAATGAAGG
The threshold is inclusive: PBM binding z-score of exactly 2 counts as true; values below receive false.

[in] Quick check, PBM binding z-score >= 2? GCTCGGAGGACAAGGTCAGACCTTTGTCCGTAGA
[out] false

[in] Quick check, PBM binding z-score >= 2? ATATGTAGGTTAGCTGGGGTCGTTCAGACTAGGC
[out] true

[in] Quick check, PBM binding z-score >= 2? AGAATGTGGTTACCAAAGATCAGGGAAACGCTTG
[out] false

[in] Quick check, PBM binding z-score >= 2? ACTGTTAGTTGAGACGAGGGCAACCGATAGGTTG
[out] false

[in] Quick check, PBM binding z-score >= 2? ATCTCTAGGTAAAGATAGTTCAGCGAATGCAAAT
[out] false

[in] Quick check, PBM binding z-score >= 2? TTACCAAGGTGAGCTGAGGTCGTTGAGCCAACTC
[out] false

Continuing:
[in] Quick check, PBM binding z-score >= 2? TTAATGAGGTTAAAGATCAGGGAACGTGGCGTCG
[out] true

###

For each entry below, report its PBM binding z-score value.
- Tested on: PPARg:RXRa IVT, anti-PPARg (NR concentration 270 nM, RXRa partner concentration 90 nM)
- Protocol notes: PBM binding z-score (relative to random genomic background probes); higher = stronger binding; sequences stand for … in GC…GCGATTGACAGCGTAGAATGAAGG
Numbers only.

// solved cases for PBM binding z-score follow
[in] Return the recorded PBM binding z-score value; entry: ATAAGTAGGTTAGCTGGGGTCATTCAGACTAGGC
[out] 6.66

[in] Return the recorded PBM binding z-score value; entry: CCGCCTGGGGCAGAAAGGTTACCATACCATCCGG
[out] -0.444

[in] Return the recorded PBM binding z-score value; entry: AGAATGAGGCTATACGTAGATCAGGGAAGAAAGT
[out] 0.333

[in] Return the recorded PBM binding z-score value; entry: CCTTACGGGTCACGAAGTTATAGCACGACGAGCG
[out] 4.76

[in] Return the recorded PBM binding z-score value; entry: TAGCCTAGGTCACGCGGGCCAGTATAGTGTCGGC
[out] 4.27

Batch request: PBM binding z-score per item, same order as input.
1. TTGCCTAGGTCATTCAGGGGCCAGTATAGAAAGC
2. CGTCAAAGTTCAACTAAGGTAAAGTAAAGCACGC
3. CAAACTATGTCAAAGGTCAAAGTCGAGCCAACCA
4. TGAATGAGGTTATAAGATCAGAGAACGTTGCAAA

[out]
[2.33, 2.11, 6.61, 1.71]

Batch request: PBM binding z-score per item, same order as input.
1. GATACAGGGACAAGGCCAGAGTACGCGTATTGAT
2. TCTGCGAGGTCAGTTGGTCAGCTAACGAGCTGCC
3. GCAGACAGGTGAAACGCAGGTAACTCTGGGTGGC
4. TTACCAAGGTGAAAGGTCTTTGATGCACGCCTTG
5. TCATATAGGTAAACAGGAGAAAGTCCGTAAGTTA
6. CAAACTCGGTCACCGGAAGGTCAAAGTCCGCATG

[out]
1. 0.0816
2. 3.25
3. 0.558
4. 4.37
5. 2.77
6. 5.21

Batch request: PBM binding z-score per item, same order as input.
1. CCGACTGGGGCAAGGTTACTATAACGCACAGCCA
2. ATACCAAGATGATCGTGAGGTCGTTGATACTAAC
3. CCTAGCAGGCCAATCTGGCTCACTCAAGGCTTGA
4. TCTAGTTGGTCAAAGGTCGCACACTCGAAATGCG
5. AGAATGAGGTTATACGTAGATCAGGGAGGAAAGT
6. CGTCCTAGGTCAAGGTCAGTGAAAGAGACTCGAA

[out]
3.39
0.114
0.117
5.25
1.91
4.08

Batch request: PBM binding z-score per item, same order as input.
1. AAATGTAGGTTACATCCGGGTCATTCAGGCTATG
2. CGTCCAAGGTCATAGGAGGTGAGTGAAGACAGAT

[out]
[8.08, 4.36]
